- Assayed system: Cytochrome P450 2D6 (Homo sapiens)
- Experimental protocol: qHTS Assay for Inhibitors and Substrates of Cytochrome P450 2D6 (AID 891); also: nearly all actives have a fitted effect of over 60% in size
- Reported conditions: recombinant CYP2D6, luciferin-ME EGE luminescence; series mostly up to 57.1 µM
Records with an inconclusive call do not appear. The source made the active and inactive calls. Calls follow the shape of the dose curve; as a rule, active = well fitted inhibition curve with a large enough effect; inconclusive = small, poorly fitted or top-dose-only effect; inactive = no such curve, though single readings can be large or run the other way.
Write down one outcome, taken from class 1 for active, class 0 for inactive

Write down the call the test reported for this compound. Item: NCCC[C@@H](CC(=O)N[C@@H]1CCCC[C@H]1C(=O)N[C@H](CC(=O)N[C@@H](CCC(=O)O)CC(=O)O)Cc1c[nH]c2ccccc12)NC(=O)C[C@H](Cc1c[nH]c2ccccc12)NC(=O)[C@@H]1CCCC[C@H]1N
class 0

Write down the call the test reported for this compound. Item: COc1ccc([C@@H]2CC(=O)c3c(O)cc(O[C@@H]4O[C@@H](CO[C@@H]5O[C@@H](C)[C@@H](O)[C@@H](O)[C@H]5O)[C@@H](O)[C@@H](O)[C@H]4O)cc3O2)cc1O
class 0

Write down the call the test reported for this compound. Item: COC(=O)[C@@]1(Cc2ccccc2)[C@H]2c3cc(C(=O)N4CCCC4)n(Cc4nc5ccccc5[nH]4)c3C[C@H]2CN1C(=O)c1ccccc1
class 1

Write down the call the test reported for this compound. Item: CC(C)[C@@H](CC(=O)N[C@@H]1CCCC[C@H]1C(=O)N[C@H](CC(=O)N[C@@H](CCC(=O)O)CC(=O)O)Cc1ccccc1)NC(=O)C[C@H](Cc1c[nH]c2ccccc12)NC(=O)[C@@H]1CCCC[C@H]1N
class 0

Write down the call the test reported for this compound. Item: C=C(CO)[C@H]1Cc2c(ccc3c2O[C@H]2COc4cc(OC)c(OC)cc4[C@@H]2C3=O)O1
class 0

Write down the call the test reported for this compound. Item: CCCCCCN(C(=O)CCCCCN1C(=O)NC(c2ccc(-c3ccccc3)cc2)C(C(=O)OCc2ccccc2)=C1C)C(C(=O)NCCCC)c1ccc(OCC(=O)OC)c(C(=O)OC)c1 (stereo unspecified)
class 0

Write down the call the test reported for this compound. Item: COc1cc2c(c(OC)c1OC)-c1ccc(OC)c(=O)cc1[C@H](NC(C)=O)CC2
class 0

Write down the call the test reported for this compound. Item: CC(C)C[C@@H](CC(=O)N[C@H](CC(=O)N[C@@H]1CCCC[C@H]1C(=O)N[C@H](CC(=O)N[C@@H](CCC(=O)O)CC(=O)O)Cc1c[nH]c2ccccc12)C(C)C)NC(=O)[C@@H]1CNCC[C@H]1N
class 0

Write down the call the test reported for this compound. Item: CC(C)[C@@H](CC(=O)N[C@@H]1CCNC[C@H]1C(=O)N[C@H](CC(=O)N[C@@H](CCC(=O)O)CC(=O)O)Cc1ccccc1)NC(=O)C[C@H](Cc1c[nH]c2ccccc12)NC(=O)[C@@H]1CCCC[C@H]1N
class 0

Write down the call the test reported for this compound. Item: CCN1CCC[C@@H]1CNC(=O)c1c(OC)ccc(I)c1O
class 1

Write down the call the test reported for this compound. Item: COc1cc2c(cc1OC)C(=O)N(C)CC2
class 0

Write down the call the test reported for this compound. Item: CC(=O)Oc1cc(OC(C)=O)c2c(=O)cc(-c3ccc(OC(C)=O)c(OC(C)=O)c3)oc2c1
class 0

Write down the call the test reported for this compound. Item: CC(C)[C@@H](CC(=O)N[C@@H]1CCCC[C@H]1C(=O)N[C@H](CC(=O)N[C@@H](CCC(=O)O)CC(=O)O)Cc1ccccc1)NC(=O)C[C@H](Cc1c[nH]c2ccccc12)NC(=O)[C@@H]1CNCC[C@H]1N
class 0

Write down the call the test reported for this compound. Item: C=C/C(=C\C)C[C@@H](CC(=O)N[C@@H](CCC(=O)O)CC(=O)O)NC(=O)[C@@H]1CNCC[C@H]1NC(=O)C[C@@H](NC(=O)C[C@H](Cc1ccccc1)NC(=O)[C@@H]1CCCC[C@H]1N)C(C)C
class 0

Write down the call the test reported for this compound. Item: Cn1ccc(O)c(C#N)c1=O
class 0

Write down the call the test reported for this compound. Item: CC(C)C[C@@H](CC(=O)N[C@H](CC(=O)N[C@@H]1CCNC[C@H]1C(=O)N[C@H](CC(=O)N[C@@H](CCC(=O)O)CC(=O)O)Cc1ccccc1)C(C)C)NC(=O)[C@@H]1CCCC[C@H]1N
class 0

Write down the call the test reported for this compound. Item: C[C@@H](C(=O)Nc1ccc2ccccc2c1)[C@H]1C[C@]1(C)[C@H](NP(=O)(c1ccccc1)c1ccccc1)c1ccccc1
class 1

Write down the call the test reported for this compound. Item: CC(C)[C@@H](CC(=O)N[C@@H]1CCNC[C@H]1C(=O)N[C@H](CC(=O)N[C@@H](CCC(=O)O)CC(=O)O)Cc1c[nH]c2ccccc12)NC(=O)C[C@H](Cc1ccccc1)NC(=O)[C@@H]1CCCC[C@H]1N
class 0

Write down the call the test reported for this compound. Item: OC1c2ccccc2-c2nc3ccccc3cc21 (stereo unspecified)
class 1

Write down the call the test reported for this compound. Item: CC(C)C[C@@H](CC(=O)N[C@@H](CCCN)CC(=O)N[C@@H]1CCCC[C@H]1C(=O)N[C@H](CC(=O)N[C@@H](CCC(=O)O)CC(=O)O)CC(C)C)NC(=O)[C@@H]1CNCC[C@H]1N
class 0

Write down the call the test reported for this compound. Item: COc1cc(O)c2c(=O)cc(-c3ccccc3)oc2c1
class 0

Write down the call the test reported for this compound. Item: NCCC[C@@H](CC(=O)N[C@@H]1CCNC[C@H]1C(=O)N[C@H](CC(=O)N[C@@H](CCC(=O)O)CC(=O)O)Cc1c[nH]c2ccccc12)NC(=O)C[C@H](CO)NC(=O)[C@@H]1CNCC[C@H]1N
class 0

Write down the call the test reported for this compound. Item: CC(C)[C@@H](CC(=O)N[C@@H]1CCCC[C@H]1C(=O)N[C@H](CC(=O)N[C@@H](CCC(=O)O)CC(=O)O)Cc1c[nH]c2ccccc12)NC(=O)C[C@H](Cc1ccccc1)NC(=O)[C@@H]1CNCC[C@H]1N
class 0

Write down the call the test reported for this compound. Item: CC1(NC[C@@H](O)COc2cccc3[nH]ccc23)CCC(C(C)(C)NC(=O)CBr)CC1 (stereo partly specified)
class 1

Write down the call the test reported for this compound. Item: c1ccc2c(c1)Cc1cc3cc4c(cc3nc1-2)OCO4
class 1

Write down the call the test reported for this compound. Item: CCC[C@@H]1C[C@@]1(CCC)C(NC(=O)c1ccccc1)c1cccc(Cl)c1 (stereo partly specified)
class 1
